B1: POU domain, class 4, transcription factor 2, residues 256 to 327; numbered along this chain, Q12837 (parent)
chain: RDLEAFAERFKQRRIKLGVTQADVGSALANLKIPGVGSLSQSTICRFESLTLSHNNMIALKPILQAWLEEAE

- Variants of: B1
- procedureDetails: abundance fitness (aPCA) (normalised: wild type 0, dead -1); higher = more abundant; growth selection in yeast, the domain comes from the species named
- conditionSummary: Homo sapiens
Each entry belongs to exactly one class, chosen by where its abundance fitness falls: lowest (below -0.4), middle (-0.4 to below -0.08), highest (-0.08 or more)

# biopolymerSequence, classification
measured = [
    ("RDLEAFAERFKQRRIKLGVTQADVGSALANLKIPGVGSLSCSTICRFESLTLSHNNMIALKPILQAWLEEAE", "middle"),
    ("RDLEAFAERFKQRRIKLGVTQADVGSALANLKIPGVGSLSQSTICRFESLTLSHNNMIALKVILQAWLEEAE", "lowest"),
    ("RDLEAFAERFKQRRIKLGVTQADVGSALANLKIPGVGSLYQSTICRFESLTLSHNNMIALKPILQAWLEEAE", "lowest"),
    ("RDLEAFAERFKQRRIKLGVTQADVGSALANLKIPGVGSLSQSTICRFESLTLSHVNMIALKPILQAWLEEAE", "highest"),
    ("RDLEAFAERFKQRRIKLGVTQADVGSALANLKIPGVGSLSQSTICRFESLTLSHNNMIALFPILQAWLEEAE", "middle"),
    ("RDLEAFAERFKQRRIKLGVTQADVGSALANLKIPGVGSLSQSTICRFESLQLSHNNMIALKPILQAWLEEAE", "highest"),
    ("RDLEAFAERFKQRRIKLGVTQADVGSALANLKIPGVGSLSQSTICRFESLTLSHNQMIALKPILQAWLEEAE", "highest"),
    ("RDLEAFAERFKQRRIKLGVTQADVGSALCNLKIPGVGSLSQSTICRFESLTLSHNNMIALKPILQAWLEEAE", "middle"),
    ("RDLEAFAERFKQRRIKLGVTQADVGSALANLKIPGVGSLSQSTICRFESLTLSHNNMIALKPILQAWVEEAE", "middle"),
    ("RDLEAFAERFKQRRIKLGVTQADVGSALAGLKIPGVGSLSQSTICRFESLTLSHNNMIALKPILQAWLEEAE", "middle"),
    ("RDLEAFAERFKQRRIKLGVTQADVGSALANLKIPGVGSLSESTICRFESLTLSHNNMIALKPILQAWLEEAE", "highest"),
    ("RDLEAFAERFKQRRIKLGVTQADWGSALANLKIPGVGSLSQSTICRFESLTLSHNNMIALKPILQAWLEEAE", "lowest"),
    ("RDLEAFAERFKQRRIKLGVTQADVGSPLANLKIPGVGSLSQSTICRFESLTLSHNNMIALKPILQAWLEEAE", "lowest"),
    ("RDLEAFAERFKQRRIKLGVTAADVGSALANLKIPGVGSLSQSTICRFESLTLSHNNMIALKPILQAWLEEAE", "highest"),
    ("RDLEAFAERFKQRRIKLGVTQADVGSALANLKIPGVGSLSQWTICRFESLTLSHNNMIALKPILQAWLEEAE", "middle"),
    ("RDLEAFAERFKQRRIKLGVTQADVGSALANLKIPGKGSLSQSTICRFESLTLSHNNMIALKPILQAWLEEAE", "lowest"),
    ("RDLEAFAERFKQRRIKLGVTQADVGSALANLKIPGVGSLSQSTICRFESLTLSHNNMIHLKPILQAWLEEAE", "middle"),
    ("RDLEAFAERFKQRRIKLGVTQADVGSALANLKIPGVGSLSQSTINRFESLTLSHNNMIALKPILQAWLEEAE", "highest"),
    ("RDLEAFAERFKQRRIKLGVTQADVGSALANLKIPGVGSLSQSTICMFESLTLSHNNMIALKPILQAWLEEAE", "middle"),
    ("RDLEAFAERFKQRRIKLGVTQADVGSALANLKIPGVGSLSQSTICRFESLTLSHNNMIALKPILQEWLEEAE", "highest"),
    ("RDLEAFAERFKQRRIKLGVTQADVGSALANLKIPGVGSLSQSTICPFESLTLSHNNMIALKPILQAWLEEAE", "lowest"),
    ("RDLEAFAERFKQRRIKLGVTQADVGSALANLKIPGVGSLSQSTICRFESLTLSHNGMIALKPILQAWLEEAE", "highest"),
    ("RDLEAFAERFKQRRIKLGVTQADVGSALINLKIPGVGSLSQSTICRFESLTLSHNNMIALKPILQAWLEEAE", "middle"),
    ("RDLEAFAERFKQRRIKLGVTQADVGSALANLKIPGVGSLSQSTIFRFESLTLSHNNMIALKPILQAWLEEAE", "highest"),
    ("RDLEAFAERFKQRRIKLGVTQADVGSALANLKKPGVGSLSQSTICRFESLTLSHNNMIALKPILQAWLEEAE", "lowest"),
    ("RDLEAFAERFKQRRIKLGVTQADVGSALANLKIPGVGSLSQSTICRFESLTLSHNNMKALKPILQAWLEEAE", "highest"),
    ("RDLEAFAERFKQRRIKLGVTQADVGSALANLKIPGVWSLSQSTICRFESLTLSHNNMIALKPILQAWLEEAE", "lowest"),
    ("RDLEAFAERFKQRRIKLGVTQADVGSALANYKIPGVGSLSQSTICRFESLTLSHNNMIALKPILQAWLEEAE", "highest"),
    ("RDLEAFAERFKQRRIKLGVTQADVGSALANLKIPGVGSLAQSTICRFESLTLSHNNMIALKPILQAWLEEAE", "middle"),
    ("RDLEAFAERFKQRRIKLGVTQADVGSALANLKIPGVGSLSQSTICRFESLTLSHNNMIALKPQLQAWLEEAE", "lowest"),
    ("RDLEAFAERFKQRRIKLGVTQADVGSALANLKIPGVGSLSQSTICRFESLTLSHNNMNALKPILQAWLEEAE", "highest"),
    ("RDLEAFAERFKQRRIKLGVTQADVGSALANLKIPGVGSLSQSTICRFESLTLSHNNMIALKPCLQAWLEEAE", "middle"),
]

Sourced from the Human Domainome abundance scans (Beltran et al. 2025)
